Recorded values, source ChEMBL document CHEMBL1147510.

# test_system: Neuronal acetylcholine receptor; alpha4/beta2 (Homo sapiens, UniProt P17787+P43681)
# Sequence (P17787 whole entry): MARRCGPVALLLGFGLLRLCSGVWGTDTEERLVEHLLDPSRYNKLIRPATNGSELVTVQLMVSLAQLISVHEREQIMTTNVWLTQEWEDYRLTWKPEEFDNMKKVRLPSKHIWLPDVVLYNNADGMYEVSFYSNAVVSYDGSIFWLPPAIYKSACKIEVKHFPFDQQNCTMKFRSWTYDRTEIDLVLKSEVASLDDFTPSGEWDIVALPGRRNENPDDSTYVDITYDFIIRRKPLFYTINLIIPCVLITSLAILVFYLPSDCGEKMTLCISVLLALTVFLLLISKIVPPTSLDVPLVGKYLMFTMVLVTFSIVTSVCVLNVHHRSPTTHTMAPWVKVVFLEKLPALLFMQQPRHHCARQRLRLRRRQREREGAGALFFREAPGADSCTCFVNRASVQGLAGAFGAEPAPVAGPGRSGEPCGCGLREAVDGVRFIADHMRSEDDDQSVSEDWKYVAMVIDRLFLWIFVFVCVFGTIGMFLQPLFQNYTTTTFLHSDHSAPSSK
# Sequence (P43681 whole entry): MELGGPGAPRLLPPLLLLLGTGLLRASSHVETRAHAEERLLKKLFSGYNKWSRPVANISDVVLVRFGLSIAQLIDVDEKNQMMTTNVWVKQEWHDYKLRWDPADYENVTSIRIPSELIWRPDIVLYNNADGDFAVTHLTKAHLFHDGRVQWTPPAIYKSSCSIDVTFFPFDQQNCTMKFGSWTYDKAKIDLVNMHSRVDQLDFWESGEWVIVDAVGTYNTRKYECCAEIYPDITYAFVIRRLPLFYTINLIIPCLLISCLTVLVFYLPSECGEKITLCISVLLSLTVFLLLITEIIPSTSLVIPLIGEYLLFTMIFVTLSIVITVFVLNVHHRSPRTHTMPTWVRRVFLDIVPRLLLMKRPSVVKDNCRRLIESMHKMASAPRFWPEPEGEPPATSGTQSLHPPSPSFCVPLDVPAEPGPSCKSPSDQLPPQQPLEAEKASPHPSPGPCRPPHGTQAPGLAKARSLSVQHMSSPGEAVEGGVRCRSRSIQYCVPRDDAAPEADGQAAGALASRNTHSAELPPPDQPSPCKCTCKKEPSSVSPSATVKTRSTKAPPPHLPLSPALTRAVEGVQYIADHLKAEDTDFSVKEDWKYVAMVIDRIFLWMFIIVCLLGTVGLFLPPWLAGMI
# protocol_description: Antagonism of ACh response at Nicotinic acetylcholine receptor alpha4-beta2 expressed in xenopus oocytes
property_label: pIC50
Interpret pIC50 as the negative base-10 log of the concentration measured in mol/L.

1. CN1[C@@H]2CC[C@H]1C[C@@H](OC(=O)c1c[nH]c3ccccc13)C2 [TROPISETRON] :: 3.77

Name the recorded pIC50 for Cc1nccn1CC1CCc2c(c3ccccc3n2C)C1=O (stereo not drawn) [ONDANSETRON] .
4.18
